Each recorded value in this set is attributed to ChEMBL document CHEMBL1201862.

Test system: DU-145
run_description: NCI tumour cell line growth inhibition, 48 h
The source made the active and inactive calls. Rule as the data show it: active = GI50 up to about 1.1 µM and inactive = higher.
For each entry below, report its GI50 value.

*Q* Identify measured GI50 associated with NN/C(=N\S(=O)(=O)c1cccc2nsnc12)Nc1ccc(Cl)cc1
*A* > 100 µM (inactive)

*Q* Note down GI50 recorded for O=C1/C(=C/c2ccccc2)N=C2Sc3c([nH]cnc3=O)N12
*A* > 100 µM (inactive)

*Q* Query GI50 for c1cc(-c2cscc2-c2ccsc2)cs1
*A* > 100 µM (inactive)

*Q* Specify reported GI50 for the compound shown: O=C1c2ccccc2C(=O)N1CCCC(=O)n1cc(F)c(=O)[nH]c1=O
*A* 10.1 µM (inactive)

*Q* Supply recorded GI50 for O=C(CSCC(=O)N/N=C/c1cc(I)cc(I)c1O)N/N=C/c1cc(I)cc(I)c1O here.
*A* 17.7 µM (inactive)

*Q* For CC#CC(O)(C(=O)OC1CC(C)N(C)C(C)(C)C1)C1CCCC1 (stereo unspecified) , write its GI50.
*A* > 100 µM (inactive)
